System: PC-3 prostate
ASSAY OVERVIEW: NCI tumour cell line growth inhibition, 48 h
Listed here are compounds together with their documented TGI.
MEASUREMENT TYPE: TGI

[
  {
    "COMPOUND": "O/N=C1/CCCCC1NO (stereo not given)",
    "MEASUREMENT": "> 100 µM"
  },
  {
    "COMPOUND": "Fc1ccccc1C1SCC2=Nc3ccccc3CN21 (stereo not given)",
    "MEASUREMENT": "> 100 µM"
  },
  {
    "COMPOUND": "COc1ccc(/C=C(\\C#N)c2nc(-c3cc4ccccc4oc3=O)cs2)cc1",
    "MEASUREMENT": "> 100 µM"
  },
  {
    "COMPOUND": "C1CN(C23OC4(N5CCOCC5)C5C6CC(C7C6C4C72)C53)CCO1 (stereo not given)",
    "MEASUREMENT": "> 100 µM"
  },
  {
    "COMPOUND": "CN1C(C(=O)Nc2ccccn2)=C(O)c2ccccc2S1(=O)=O",
    "MEASUREMENT": "> 100 µM"
  },
  {
    "COMPOUND": "Cc1cn(C2CC(O)C(Cn3cc(Cn4nc(Br)c(=O)[nH]c4=O)nn3)O2)c(=O)[nH]c1=O (stereo not given)",
    "MEASUREMENT": "> 100 µM"
  },
  {
    "COMPOUND": "C[C@@H](CC(O)C(O)C(C)(C)O)C1CCC23CC12CCC1[C@@]2(C)CCC(=O)C(C)(C)C2CC(OC2OC(CO)C(O)C(O)C2O)[C@]13C (stereo not given in full)",
    "MEASUREMENT": "> 10 µM"
  },
  {
    "COMPOUND": "CCOC(=O)c1c(C)n(CCN2CCN(C)CC2)c2ccc(OC)cc12",
    "MEASUREMENT": "> 100 µM"
  },
  {
    "COMPOUND": "O=C(O)C1(Cc2ccc3c(c2)CCC3)Cc2cc3c(cc2C1)CCC3",
    "MEASUREMENT": "> 100 µM"
  },
  {
    "COMPOUND": "COc1cccc(C2c3cc4c(cc3OC(N3CCOCC3)C2C)OCO4)c1 (stereo not given)",
    "MEASUREMENT": "44.4 µM"
  }
]

----------
Test system: NCI-H460 lung
ASSAY OVERVIEW: NCI tumour cell line growth inhibition, 48 h
Listed here are molecules together with their documented TGI.
MEASUREMENT TYPE: TGI (µM)

[
  {
    "QUERY SMILES": "COCCOCCOCCOCCOc1ccc2c(c1)C(=O)c1nc3ncccc3c(=O)n1-2",
    "QUALIFIER SIGN": "=",
    "MEASUREMENT": 1.39
  },
  {
    "QUERY SMILES": "CC(=O)Nc1[nH]c(=O)[nH]c(=O)c1N(C(C)=O)C(C)=O",
    "QUALIFIER SIGN": ">",
    "MEASUREMENT": 100
  },
  {
    "QUERY SMILES": "O=C1CCC(c2ccccc2)(c2ccccc2)CC1",
    "QUALIFIER SIGN": ">",
    "MEASUREMENT": 100
  },
  {
    "QUERY SMILES": "COc1cc(/C=C2\\N=C(c3ccccc3)N(c3ccc(C(=O)c4ccccc4)cc3N3C(=O)/C(=C/c4cc(OC)c(OC)c(OC)c4)N=C3c3ccccc3)C2=O)cc(OC)c1OC",
    "QUALIFIER SIGN": "=",
    "MEASUREMENT": 23.8
  },
  {
    "QUERY SMILES": "C[C@@H]1CC[C@H]2C(CN3CCN(CC4=C(C(F)(F)F)O[C@@H]5O[C@@]6(C)CC[C@H]7[C@H](C)CC[C@@H]4[C@@]57OO6)CC3)=C(C(F)(F)F)O[C@@H]3O[C@@]4(C)CC[C@@H]1[C@]32OO4",
    "QUALIFIER SIGN": ">",
    "MEASUREMENT": 100
  },
  {
    "QUERY SMILES": "O=C(Nc1ccc(-c2nc3ccc(NC(=O)c4ccc(Cl)cc4)cc3[nH]2)cc1)c1ccc(Cl)cc1",
    "QUALIFIER SIGN": "=",
    "MEASUREMENT": 4.03
  },
  {
    "QUERY SMILES": "COc1ccc2c3c([nH]c2c1)[C@H]1C[C@H]2[C@H](C[C@@H](O)[C@H](OC)[C@H]2C(=O)O)CN1CC3",
    "QUALIFIER SIGN": ">",
    "MEASUREMENT": 100
  },
  {
    "QUERY SMILES": "N#CC(C#N)=C/C=C/c1cccc([N+](=O)[O-])c1",
    "QUALIFIER SIGN": "=",
    "MEASUREMENT": 2.68
  }
]
